Target: hM2 receptor (Homo sapiens)
Construct: expressed in transfected cells; membranes prepared
Sequence (P08172 whole entry): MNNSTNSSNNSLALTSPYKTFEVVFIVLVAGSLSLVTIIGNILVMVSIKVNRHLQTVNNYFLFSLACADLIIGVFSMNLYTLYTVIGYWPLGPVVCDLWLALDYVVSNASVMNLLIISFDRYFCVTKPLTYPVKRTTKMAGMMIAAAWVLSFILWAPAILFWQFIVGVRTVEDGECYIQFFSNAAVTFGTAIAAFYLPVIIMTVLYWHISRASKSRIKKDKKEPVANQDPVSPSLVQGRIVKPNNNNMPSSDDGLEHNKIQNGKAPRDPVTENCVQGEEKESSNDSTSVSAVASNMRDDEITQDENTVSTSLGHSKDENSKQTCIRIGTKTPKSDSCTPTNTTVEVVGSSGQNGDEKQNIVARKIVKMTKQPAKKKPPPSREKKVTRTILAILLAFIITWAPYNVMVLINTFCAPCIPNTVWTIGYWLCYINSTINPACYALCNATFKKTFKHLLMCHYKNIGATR
Assay: Blockade of agonist-mediated inhibition of cAMP accumulation
Format: cell-based
Details: CHO-K1 cells expressing the hM2 receptor; read-out: Ki for blockade of oxotremorine-inhibition of forskolin-mediated cAMP accumulation
EXPERIMENTAL READOUT: Ki

The recorded Ki with hM2 receptor (Homo sapiens) for COc1ccncc1CN1CCC(N(CCCCCCCN2CC[C@@H](C(C(N)=O)(c3ccccc3)c3ccccc3)C2)C(C)C)CC1 was < 1 nM
